Parameter pIC50, tested on SARM1 (50-724) (Homo sapiens, UniProt Q6SZW1), listed per item.
pIC50: −log10 of the molar value.

Worked examples follow.
>>> result("Cn1cc(OC(F)(F)F)c(-n2cnnc2-c2nc3c(F)c(C4CC4)ccc3[nH]2)cc1=O")
"≥ 7.00"
>>> result("FC(F)(F)c1ccc2[nH]c(-c3nncn3-c3c(Cl)cccc3-c3ccn[nH]3)nc2c1")
"6.30 to 7.00"
>>> result("FC(F)(F)Oc1cnccc1-n1cnnc1-c1nc2cc(C(F)(F)F)cc(Cl)c2[nH]1")
"≥ 7.00"
>>> result("CC(O)C(C)(C)c1ccc2[nH]c(-c3nncn3-c3cccc(Cl)c3Cl)nc2c1 (stereo not drawn)")
"≥ 7.00"

Query: I would be grateful if you could share the reported pIC50 for FC(F)(F)c1ccc2[nH]c(-c3nncn3-c3cnccc3C(F)(F)F)c(-c3cccnn3)c2c1 .
Reply: ≥ 7.00

Query: I would be grateful if you could share the reported pIC50 for Cc1ccc2[nH]c(-c3ncccc3-c3cccc(Cl)c3Cl)nc2c1 .
Reply: < 6.00

Query: I would be grateful if you could share the reported pIC50 for NC(=O)c1cc(Cl)c(Cl)c(-n2cnnc2-c2nc3cc(C(F)(F)F)ccc3[nH]2)c1 .
Reply: ≥ 7.00

Query: I would be grateful if you could share the reported pIC50 for NC(=O)c1cc(-c2nc3cc(C(F)(F)F)ccc3[nH]2)n(-c2cccc(F)c2Cl)n1 .
Reply: ≥ 7.00

Query: I would be grateful if you could share the reported pIC50 for CC(CO)c1ccc2[nH]c(-c3nncn3-c3cccc(Cl)c3Cl)nc2c1 (stereo not drawn) .
Reply: ≥ 7.00

Query: I would be grateful if you could share the reported pIC50 for Fc1cc(C2CC2)cc2nc(-c3nnccc3-c3cnccc3C(F)(F)F)[nH]c12 .
Reply: ≥ 7.00

Query: I would be grateful if you could share the reported pIC50 for O=c1[nH]ccc(-c2cccc(Cl)c2Cl)c1-c1nc2cc(C(F)(F)F)ccc2[nH]1 .
Reply: 6.30 to 7.00

Query: I would be grateful if you could share the reported pIC50 for FC(F)(F)c1ccc2[nH]c(-c3nncn3-c3cccc4nccn34)nc2c1 .
Reply: < 6.00

###

pIC50 values, listed per item
TARGET_DESC: SARM1 (50-724) (Homo sapiens, UniProt Q6SZW1)
Sequence (Q6SZW1 50-724): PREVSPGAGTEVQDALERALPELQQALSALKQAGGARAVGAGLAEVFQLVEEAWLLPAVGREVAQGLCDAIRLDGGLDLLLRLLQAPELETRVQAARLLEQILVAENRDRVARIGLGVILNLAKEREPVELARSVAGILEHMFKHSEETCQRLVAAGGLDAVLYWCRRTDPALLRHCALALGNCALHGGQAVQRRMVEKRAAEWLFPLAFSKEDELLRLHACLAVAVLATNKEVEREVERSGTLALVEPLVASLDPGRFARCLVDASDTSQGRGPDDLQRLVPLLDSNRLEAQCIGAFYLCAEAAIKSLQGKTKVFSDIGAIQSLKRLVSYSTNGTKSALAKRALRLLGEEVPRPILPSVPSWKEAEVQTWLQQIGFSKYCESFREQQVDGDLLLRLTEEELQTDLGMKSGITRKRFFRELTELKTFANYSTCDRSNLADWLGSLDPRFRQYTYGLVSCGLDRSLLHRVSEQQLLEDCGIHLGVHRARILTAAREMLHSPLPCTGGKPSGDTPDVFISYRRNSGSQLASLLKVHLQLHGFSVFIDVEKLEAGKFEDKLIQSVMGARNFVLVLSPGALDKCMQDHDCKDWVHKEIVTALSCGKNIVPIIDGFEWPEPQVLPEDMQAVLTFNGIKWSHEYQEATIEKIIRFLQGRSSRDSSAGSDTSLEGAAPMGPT
pIC50: −log10 of the molar value.

Query: I would be grateful if you could share the reported pIC50 for Cc1ccc2[nH]c(-c3cncn3C3CCCC3)nc2c1 .
Reply: < 6.00

Query: I would be grateful if you could share the reported pIC50 for Fc1cc(C(F)(F)F)cc2nc(-c3nnc(CC(F)F)n3-c3cnccc3C(F)(F)F)[nH]c12 .
Reply: ≥ 7.00

Query: I would be grateful if you could share the reported pIC50 for CS(=O)(=O)Cn1cc(-c2nc3cc(C(F)(F)F)ccc3[nH]2)c(-c2cccc(Cl)c2Cl)n1 .
Reply: < 6.00
